# MEASUREMENT TARGET: T1, ECF38_1322
# T1 chain: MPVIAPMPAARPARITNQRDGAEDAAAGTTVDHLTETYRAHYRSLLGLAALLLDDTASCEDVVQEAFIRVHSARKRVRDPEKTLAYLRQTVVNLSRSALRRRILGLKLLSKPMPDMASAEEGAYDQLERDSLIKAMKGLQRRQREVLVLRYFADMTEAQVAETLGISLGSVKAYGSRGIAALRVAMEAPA
Listing of entries alongside the reported fold repression.
Write the value as a bare number.

# BINDER, MEAS VALUE
records = [
    ("AS33_375 (protein) MMALSKKMLEQEPSEIELLLPWHAAGTLNARDARRVEDALARDPELAKQYAAIRGEYEETIHLNESLGAPSARAMQKLFGAIDAEPARETGSLPLSARIATFFASLSPRTLAWSASLGAVALVLQAGIIGAVLMKTQPTTFQTASLSTSAPITRELGAAVAPARALVRFTPEARVADITALLDSYQASIIGDAKGGMFRLQFDKAMSQDELASLLGRMQREKFVNLAVAAP", 7.66),
]

API: the following record is the query input.
Query: Determine from records and report fold repression for AS27_1331 (protein) MSAADKDPDKHSADADPPLTVELLADLQAGLLDDATAARIRSRVRSDPQAQQILRALNRVRRDVAAMGADPAWGPAARPAVVDSISAALRSARPNSSPGAAHAARPHVHPVRMIAGAAGLCAVATAIGVGAVVDAPPPAPSAPTTAQHITVSKPAPVIPLSRPQVLDLLHHTPDYGPPGGPLGDPSRRTSCLSGLGYPASTPVLGAQPIDIDARPAVLLVIPADTPDKLAVFAVAPHCSAADTGLLASTVVPRA
Reply: 3.98
